# test.target: HLA-B*15:02
# test.protocol: IEDB peptide-MHC binding, purified MHC/competitive/fluorescence; filed as Kd, often an IC50 or EC50 that approximates it; bounds were set here for any values at or beyond the usual limits of such assays
# recorded.conditions: source organism: Rickettsia bellii RML369-C
observation.type: Kd (µM)

| sequence | observation.type | numeric.value |
| --- | --- | --- |
| FAYKTGSSM | Kd | 0.0127 |

###

# test.target: HLA-A*31:01
# test.protocol: IEDB peptide-MHC binding, purified MHC/direct/fluorescence; filed as Kd, often an IC50 or EC50 that approximates it; bounds were set here for any values at or beyond the usual limits of such assays
# recorded.conditions: source organism: Influenza A virus (A/Viet Nam/HN/2004(H5N1))
pKd: −log10 of the molar value.

| sequence | pKd |
| --- | --- |
| RNEQGQTLW | ≤ 4.70 |
